- measurement-target: F508delCFTR (Homo sapiens, UniProt P13569, DEL508-508)
- Construct: expressed in transfected cells; host or cells: CFBE41o- human lung-derived epithelial cells (CFBE4lo-F508delCFTR-HRP), doxycycline-inducible
- Sequence (P13569 with tags, fused parts or gaps DEL508-508): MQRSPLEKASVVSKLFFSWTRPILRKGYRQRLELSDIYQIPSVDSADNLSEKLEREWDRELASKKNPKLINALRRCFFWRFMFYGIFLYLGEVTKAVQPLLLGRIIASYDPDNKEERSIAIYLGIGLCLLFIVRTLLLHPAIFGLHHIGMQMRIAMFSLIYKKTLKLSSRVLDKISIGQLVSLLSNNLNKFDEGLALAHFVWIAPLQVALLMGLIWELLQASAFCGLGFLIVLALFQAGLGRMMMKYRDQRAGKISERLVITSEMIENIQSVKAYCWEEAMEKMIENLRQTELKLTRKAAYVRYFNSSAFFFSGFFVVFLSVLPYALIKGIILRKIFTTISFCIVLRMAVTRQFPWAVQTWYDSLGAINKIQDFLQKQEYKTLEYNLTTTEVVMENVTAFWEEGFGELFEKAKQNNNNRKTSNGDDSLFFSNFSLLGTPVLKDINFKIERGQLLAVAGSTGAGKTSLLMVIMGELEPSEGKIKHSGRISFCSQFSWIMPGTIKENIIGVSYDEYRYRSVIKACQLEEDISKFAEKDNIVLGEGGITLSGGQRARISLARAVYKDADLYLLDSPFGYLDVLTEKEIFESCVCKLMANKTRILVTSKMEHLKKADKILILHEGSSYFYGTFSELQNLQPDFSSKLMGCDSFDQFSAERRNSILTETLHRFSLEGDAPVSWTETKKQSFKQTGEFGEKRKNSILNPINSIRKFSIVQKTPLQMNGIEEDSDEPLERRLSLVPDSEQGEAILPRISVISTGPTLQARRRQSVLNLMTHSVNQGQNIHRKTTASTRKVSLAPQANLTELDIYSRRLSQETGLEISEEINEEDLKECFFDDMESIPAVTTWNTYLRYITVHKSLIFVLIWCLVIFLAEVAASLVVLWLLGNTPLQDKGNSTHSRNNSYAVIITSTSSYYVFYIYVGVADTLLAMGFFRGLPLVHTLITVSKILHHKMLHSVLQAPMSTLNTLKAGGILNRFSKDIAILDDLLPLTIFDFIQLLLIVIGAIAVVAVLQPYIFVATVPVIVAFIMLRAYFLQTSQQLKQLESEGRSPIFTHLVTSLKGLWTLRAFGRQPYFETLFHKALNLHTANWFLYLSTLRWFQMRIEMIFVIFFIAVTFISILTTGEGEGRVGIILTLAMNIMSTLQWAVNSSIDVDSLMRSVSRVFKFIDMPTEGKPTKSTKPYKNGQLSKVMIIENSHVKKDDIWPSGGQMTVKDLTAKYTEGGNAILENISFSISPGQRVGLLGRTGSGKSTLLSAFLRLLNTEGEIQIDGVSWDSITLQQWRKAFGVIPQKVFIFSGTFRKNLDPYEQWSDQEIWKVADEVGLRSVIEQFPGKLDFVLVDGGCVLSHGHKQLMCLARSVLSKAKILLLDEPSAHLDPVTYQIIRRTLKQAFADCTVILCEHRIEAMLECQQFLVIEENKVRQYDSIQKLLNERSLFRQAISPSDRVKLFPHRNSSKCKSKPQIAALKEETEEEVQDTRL
- assay-protocol: Cell Surface Expression-Horse Radish Peroxidase (CSE-HRP) Assay
- Assay type: cell-based
- reported-conditions: with co-corrector (2 μM of 3-[(2R,4R)-4-({[1-(2,2-difluoro-1,3-benzodioxol-5-yl)cyclopropyl]carbonyl}amino)-7-methoxy-3,4-dihydro-2H-chromen-2-yl]benzoic acid); read-out: EC50 (with co-corrector)
result-type: EC50

Lookup: Entry COc1ccc(OC(F)(F)F)cc1CN[C@H]1[C@H](C(C)(C)C)[C@@H](C(=O)O)N(C(=O)OC(C)C)[C@H]1c1ccccc1C(C)C [II-560] has what EC50?
Found: < 1000 nM

Lookup: Param item: COc1ncc(-c2ccc(F)cc2C)cc1CN[C@H]1[C@H](C(C)(C)C)[C@@H](C(=O)O)N(C(=O)C2CCCCC2)[C@H]1c1ccccc1 [II-343]
Found: < 1000 nM

Lookup: Param item: CC(C)(C)[C@H]1[C@H](NCc2ccc(F)cc2OCC2CC2)[C@H](c2ccccc2)N(C(=O)C2CCCCC2)[C@@H]1C(=O)O [Example I-50]
Found: 1000 to 10000 nM

Lookup: Param item: COc1ncc(-c2cccnc2)cc1CN[C@H]1[C@H](C(C)(C)C)[C@@H](C(=O)O)N(C(=O)C2CCCCC2)[C@H]1c1ccccc1 [II-345]
Found: 1000 to 10000 nM

Lookup: Param item: COc1ccc(SC(F)(F)F)cc1CN[C@H]1[C@H](C(C)(C)C)[C@@H](C(=O)O)N(C(=O)OC(C)C)[C@H]1c1cccnc1N(C)C [III-225]
Found: 1000 to 10000 nM

Lookup: Param item: CC(C)OC(=O)N1[C@H](C(=O)O)[C@@H](C(C)(C)C)[C@H](NCC2CCCC(C(F)(F)F)C2)[C@@H]1c1ccccc1 (stereo partly drawn) [II-584]
Found: 1000 to 10000 nM

====

- measurement-target: F508delCFTR (Homo sapiens, UniProt P13569, DEL508-508)
- Construct: expressed in transfected cells; host or cells: CFBE41o- human lung-derived epithelial cells (CFBE4lo-F508delCFTR-HRP), doxycycline-inducible
- assay-protocol: Cell Surface Expression-Horse Radish Peroxidase (CSE-HRP) Assay
- Assay type: cell-based
- reported-conditions: with co-corrector (2 μM of 3-[(2R,4R)-4-({[1-(2,2-difluoro-1,3-benzodioxol-5-yl)cyclopropyl]carbonyl}amino)-7-methoxy-3,4-dihydro-2H-chromen-2-yl]benzoic acid); read-out: EC50 (with co-corrector)
- Method: Cell Surface Expression-Horse Radish Peroxidase (CSE-HRP) Assay The development was achieved by expressing the F508delCFTR mutation along with a horseradish peroxidase (HRP) in the fourth exofacial loop, and then measuring the HRP activity using luminescence readout from these cells, CFBE4lo-F508delCFTR-HRP, that were incubated overnight with the test corrector compounds, either without or with the co-corrector. […] The raw counts from the experiment were analyzed using Accelrys® Assay Explorer v3.3. […]
pEC50: −log10 of the molar value.
Hi there, I'd appreciate the recorded pEC50 for every entry that follows.

Lookup: Requested read-out pEC50, target or system F508delCFTR (Homo sapiens, UniProt P13569, DEL508-508), entry `COc1ccc(C(C)(C)C)cc1CN[C@H]1[C@H](C(C)(C)C)[C@@H](C(=O)O)N(C(=O)Cc2c[nH]cn2)[C@H]1c1ccccc1`
Found: 5.00 to 6.00

Lookup: Param item: `COc1cc(C(F)(F)F)ccc1CN[C@H]1[C@H](C(C)(C)C)[C@@H](C(=O)O)N(C(=O)C2CCCCC2)[C@H]1c1ccccc1`
Found: > 6.00

Lookup: Param item: `COc1nc(C(C)(C)C)ccc1CN[C@H]1[C@H](C23CC(C2)C3)[C@@H](C(=O)O)N(C(=O)OC(C)C)[C@H]1c1ccccc1`
Found: 5.00 to 6.00

Lookup: Param item: COc1ncc(C(F)(F)F)cc1CN[C@H]1[C@H](C(C)(C)C)[C@@H](C(=O)O)N(C(=O)C2CCc3ccc(F)cc3O2)[C@H]1c1ccccc1 (some centres unmarked)
Found: 5.00 to 6.00

Lookup: Param item: COc1ccc(C(F)(F)F)cc1CN[C@@H]1[C@@H](C(C)(C)C)[C@H](C(=O)O)N(C(=O)C(C)(C)OC)[C@@H]1c1ccccc1 (racemic)
Found: 5.00 to 6.00

Lookup: Param item: `COc1ncc(C2CCCC2)cc1CN[C@H]1[C@H](C(C)(C)C)[C@@H](C(=O)O)N(C(=O)C2CCCCC2)[C@H]1c1cccnc1N(C)C`
Found: 5.00 to 6.00

Lookup: Param item: Cc1cc(C(F)(F)F)cc(N[C@@H]2[C@@H](C(C)(C)C)[C@H](C(=O)O)N(C(=O)C3CCCCC3)[C@@H]2c2cccnc2N(C)C)n1 (racemic)
Found: 5.00 to 6.00

Lookup: Param item: `COc1ccc(C(C)(C)C)cc1CN[C@H]1[C@H](C(C)(C)C)[C@@H](C(=O)O)N(C(=O)C2CCCCC2)[C@H]1c1ccccc1C`
Found: > 6.00

Lookup: Param item: `COc1ccc(C(C)(C)C)cc1CN[C@H]1[C@H](C23CC(C2)C3)[C@@H](C(=O)O)N(C(=O)C2CCCCC2)[C@H]1c1ccccc1`
Found: > 6.00

Lookup: Param item: Cc1cc(C(F)(F)F)cc(N[C@H]2[C@@H](c3ccccc3)N(C(=O)C3CCCCC3)[C@@H](C(=O)O)C23CC3)n1 (racemic)
Found: 5.00 to 6.00

Lookup: Param item: CC(C)(C)[C@@H]1[C@@H](NCc2ccccc2OC(F)F)[C@@H](c2ccccn2)N(C(=O)C2CCCCC2)[C@H]1C(=O)O (racemic)
Found: 5.00 to 6.00

Lookup: Param item: `COc1cccc(-c2cnc(OC)c(CN[C@H]3[C@H](C(C)(C)C)[C@@H](C(=O)O)N(C(=O)C4CCCCC4)[C@H]3c3ccccc3)c2)c1`
Found: > 6.00

Lookup: Param item: `CC(C)(C)[C@H]1[C@H](NCC2(c3ccccc3Cl)CCOCC2)[C@H](c2ccccc2)N(C(=O)C2CCCCC2)[C@@H]1C(=O)O`
Found: 5.00 to 6.00

Lookup: Param item: COc1ccc(C(C)(C)C)cc1CN[C@H]1[C@H](C(C)(C)C)[C@@H](C(=O)O)N(C(=O)C(OC)c2ccc(F)c(F)c2)[C@H]1c1ccccc1 (relative stereo)
Found: > 6.00

Lookup: Param item: `Cc1cc(C(F)(F)F)cc(N[C@H]2[C@H](C(C)(C)C)[C@@H](C(=O)O)N(C(=O)C3CCCCC3)[C@H]2c2ccccc2C)n1`
Found: 5.00 to 6.00

Lookup: Param item: `COc1ccc(C(C)(C)C)cc1CN[C@H]1[C@H](C(C)(C)OC)[C@@H](C(=O)O)N(C(=O)C2CCCCC2)[C@H]1c1cccnc1OC`
Found: 5.00 to 6.00

Lookup: Param item: `COc1ccc(C(C)(C)C)cc1CN[C@H]1[C@H](C(C)(C)C)[C@@H](C(=O)O)N(C(=O)[C@H]2CCC[C@H](OC)C2)[C@H]1c1ccccc1`
Found: 5.00 to 6.00

Lookup: Param item: COc1ccc(C(F)(F)F)cc1CN[C@H]1[C@H](C(C)(C)C)[C@@H](C(=O)O)N(C(=O)C(Oc2ccc(Cl)cc2)C(C)C)[C@H]1c1ccccc1 (some centres unmarked)
Found: > 6.00

Lookup: Param item: `COc1nc2ccccc2cc1CN[C@H]1[C@H](C(C)(C)C)[C@@H](C(=O)O)N(C(=O)[C@@H]2CCCO2)[C@H]1c1cccnc1N(C)C`
Found: 5.00 to 6.00

Lookup: Param item: `COc1ccc(C(F)(F)F)cc1CN[C@H]1[C@H](C(C)(C)C)[C@@H](C(=O)O)N(C(=O)C2CCCCC2)[C@H]1c1cccnc1OC`
Found: 5.00 to 6.00

Lookup: Param item: `COc1ccc(-c2ccccc2C#N)cc1CN[C@H]1[C@H](C(C)(C)C)[C@@H](C(=O)O)N(C(=O)C2CCCCC2)[C@H]1c1ccccc1`
Found: 5.00 to 6.00

Lookup: Param item: COc1ccc(C(C)(C)C)cc1CN[C@H]1[C@H](C(C)(C)C)[C@@H](C(=O)O)N(C(=O)C2CC3CCC(C2)O3)[C@H]1c1ccccc1 (some centres unmarked)
Found: 5.00 to 6.00

Lookup: Param item: COc1nc(C(C)(C)C)ccc1CN[C@H]1[C@H](C(C)(C)C)[C@@H](C(=O)O)N(C(=O)C2CCCC(OC)C2)[C@H]1c1ccccc1 (some centres unmarked)
Found: 5.00 to 6.00

====

- measurement-target: F508delCFTR (Homo sapiens, UniProt P13569, DEL508-508)
- Construct: expressed in transfected cells; host or cells: CFBE41o- human lung-derived epithelial cells (CFBE4lo-F508delCFTR-HRP), doxycycline-inducible
- assay-protocol: Cell Surface Expression-Horse Radish Peroxidase (CSE-HRP) Assay
- Assay type: cell-based
- reported-conditions: with co-corrector (2 μM of 3-[(2R,4R)-4-({[1-(2,2-difluoro-1,3-benzodioxol-5-yl)cyclopropyl]carbonyl}amino)-7-methoxy-3,4-dihydro-2H-chromen-2-yl]benzoic acid); read-out: EC50 (with co-corrector)
result-type: EC50

Lookup: Entry `COc1ccc(C(C)(C)C)cc1CN[C@H]1[C@H](C23CC(C2)C3)[C@@H](C(=O)O)N(C(=O)OC(C)C)[C@H]1c1ccccc1` has what EC50?
Found: 1000 to 10000 nM

Lookup: Param item: COc1ccc(C(F)(F)F)cc1CN[C@@H]1[C@@H](C(C)(C)C)[C@H](C(=O)O)N(C(=O)C2CCCCC2)[C@@H]1c1ccccn1 (racemic)
Found: 1000 to 10000 nM

Lookup: Param item: COc1ccc(C(C)(C)C)cc1CN[C@H]1[C@H](C(C)(C)C)[C@@H](C(=O)O)N(C(=O)C2C3C2[C@H]2CC[C@@H]3C2)[C@H]1c1ccccc1 (stereo partly drawn)
Found: < 1000 nM
